Origin of measurements: PubChem BioAssay AID2524

- EXPERIMENTAL SYSTEM: Intestinal-type alkaline phosphatase (Homo sapiens) (UniProt P09923)
- Sequence (P09923 whole entry, looked up): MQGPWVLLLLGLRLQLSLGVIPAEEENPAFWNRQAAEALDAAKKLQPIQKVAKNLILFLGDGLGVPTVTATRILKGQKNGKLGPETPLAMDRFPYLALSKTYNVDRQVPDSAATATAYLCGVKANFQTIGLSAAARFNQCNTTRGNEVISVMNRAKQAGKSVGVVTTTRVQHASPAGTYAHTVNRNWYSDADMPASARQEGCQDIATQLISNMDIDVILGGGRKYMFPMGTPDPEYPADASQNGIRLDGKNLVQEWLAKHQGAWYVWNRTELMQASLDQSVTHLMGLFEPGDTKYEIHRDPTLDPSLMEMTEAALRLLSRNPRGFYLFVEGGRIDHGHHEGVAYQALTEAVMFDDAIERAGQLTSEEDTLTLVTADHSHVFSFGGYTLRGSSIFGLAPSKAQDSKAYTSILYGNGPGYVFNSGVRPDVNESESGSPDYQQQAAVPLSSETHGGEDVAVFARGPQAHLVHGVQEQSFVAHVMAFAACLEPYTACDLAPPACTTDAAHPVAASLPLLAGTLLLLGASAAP
- ASSAY TEXT: human IAP activators, primary screen, biochemical, luminescence, uHTS (AID 2524)
- TEST CONTEXT: purified human IAP, CDP-Star luminescence, 30 min; at 10 µM; active compounds read high; 1 = vehicle-only enzyme, 0 = enzyme-free background
In all, about 330,000 compounds went through this assay and about 540 (0.16%) were called active. What follows is part of a selection rich in actives, with near analogues and random picks from the rest.
READOUT KIND: activation factor

Problem: Recorded activation factor of Cc1cc(C)c(C#N)c(SCC(=O)N(CC(C)C)C2CCS(=O)(=O)C2)n1 (stereo unspecified) , please.
Result: 0.97 (inactive)

Next:
Problem: // lookup activation factor for COc1ccc(NC(=O)CC2C(=O)OCC3CCCCN32)cc1Cl (stereo unspecified)
Result: 1.01 (inactive)

Problem: Name the reported activation factor value associated with the compound O=C(c1ccc(Br)o1)N(c1ccccn1)C1CCCCC1
Result: 1.04 (inactive)

Problem: What value of activation factor has been recorded for this entry: CC(C)n1cnc2c(NCc3ccccc3)cc(N[C@@H](CO)Cc3ccccc3)cc21
Result: 0.984 (inactive)

Problem: Requested field: activation factor. Item: CC12COC3(C(=O)Nc4ccc(Cl)cn4)CC1CCC32C (stereo unspecified)
Result: 0.935 (inactive)

Problem: Can you look up the measured activation factor of O=C(NCc1ccccc1Cl)c1ccc2c(=O)n(CC3CCCO3)c(=S)[nH]c2c1 (stereo unspecified) for me?
Result: 0.824 (inactive)
